Target: T1, IL-2R on human primary T cells (human, UniProt P01589 22-272; P14784 27-551; P31785 23-369)
T1 sequence (looked up) 1: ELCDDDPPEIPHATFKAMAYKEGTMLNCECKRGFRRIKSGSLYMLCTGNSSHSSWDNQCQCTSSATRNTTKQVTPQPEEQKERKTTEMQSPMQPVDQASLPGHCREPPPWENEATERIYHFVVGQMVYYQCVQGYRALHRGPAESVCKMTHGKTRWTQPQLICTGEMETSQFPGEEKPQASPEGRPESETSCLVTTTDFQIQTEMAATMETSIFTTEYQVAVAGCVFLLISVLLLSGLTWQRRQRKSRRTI
T1 sequence (looked up) 2: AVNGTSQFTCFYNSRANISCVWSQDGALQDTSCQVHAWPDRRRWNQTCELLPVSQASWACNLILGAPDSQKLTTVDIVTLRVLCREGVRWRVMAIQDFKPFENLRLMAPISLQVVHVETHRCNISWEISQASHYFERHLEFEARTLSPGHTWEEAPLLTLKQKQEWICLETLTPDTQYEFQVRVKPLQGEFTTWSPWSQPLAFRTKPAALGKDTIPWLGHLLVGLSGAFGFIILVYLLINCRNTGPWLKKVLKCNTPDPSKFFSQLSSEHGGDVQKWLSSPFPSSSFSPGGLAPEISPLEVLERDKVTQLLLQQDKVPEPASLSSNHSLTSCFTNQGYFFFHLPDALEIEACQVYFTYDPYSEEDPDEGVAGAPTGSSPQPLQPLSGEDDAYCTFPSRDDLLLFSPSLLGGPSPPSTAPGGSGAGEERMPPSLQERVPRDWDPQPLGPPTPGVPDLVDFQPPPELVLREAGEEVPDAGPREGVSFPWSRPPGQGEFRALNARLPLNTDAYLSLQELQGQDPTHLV
T1 sequence (looked up) 3: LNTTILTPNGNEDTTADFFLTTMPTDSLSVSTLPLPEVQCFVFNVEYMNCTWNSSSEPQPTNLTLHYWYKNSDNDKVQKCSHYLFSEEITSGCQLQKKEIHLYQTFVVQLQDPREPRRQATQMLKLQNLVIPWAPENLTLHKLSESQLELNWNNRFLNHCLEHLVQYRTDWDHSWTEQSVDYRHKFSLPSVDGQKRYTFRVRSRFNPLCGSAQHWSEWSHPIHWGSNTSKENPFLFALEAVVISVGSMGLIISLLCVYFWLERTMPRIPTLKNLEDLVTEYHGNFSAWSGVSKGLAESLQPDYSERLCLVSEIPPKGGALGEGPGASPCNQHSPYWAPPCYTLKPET
Test: cell-based or functional assay
readout-type: CD8 naïve EC50 (nM), STAT5 phosphorylation

(1) SEQ ID NO 37 (ligand) APTSSSTKKTQLQLEHLLLDLQMILNGINNHKNPKLTRMLTFKFYMPKKATELKHLQCLEEELKPLEEALRLAPSKNFHLRPRDLISDINVIVLELKGSETTFMCEYADETATIVEFLNRWITFSQSIISTLT
(2) SEQ ID NO 15 (ligand) APTSSSTKKTQLQLEHLLLDLQMILNGINNHKNPRLTRMLTFKFYMPKKATELKHLQCLEEELKPLEEVLRLAPSKNFHLRPRDLISNINVIVLELKGSETTFMCEYADETATIVEFLNRWITFSQSIISTLT
Name the one with the greater CD8 naïve EC50 (nM), STAT5 phosphorylation value, either 1 or 2 as given. Answer = label.
1

(1) SEQ ID NO 26 (ligand) APTSSSTKKTQLQLEHLLLDLQMILNGINNHKNPRLTRMLTFKFYMPKKATELKHLQCLEEELKPLEEVLRLAPSKNFHLRPRDLISDINVIVLELKGSETTFMCEYADETATIVEFLNRWITFSQSIISTLT
(2) SEQ ID NO 16 (ligand) APTSSSTKKTQLQLEHLRLDLEMILNGINNYKNPKLTRMLTFKFYMPKKATELKHLQCLEEELKPLEEVLNLAQSKNFHFDPRDVVSNINVFVLELKGSETTFMCEYADETATIVEFLNRWITFSQSIISTLT
# compare CD8 naïve EC50 (nM), STAT5 phosphorylation for 1 vs 2 ; return the one with the smaller value When you have decided, please share the label of that item.
2
